Target: T1, human 4-1BB-His protein (human, UniProt Q07011 24-186)
T1 construct: Recombinant His-tagged protein; also called human 4-1BB-his tag; recombinant 4-1BB protein; not shown: His tag
Experiment: SPR, Biacore T200, antibody captured on Protein A chip, human 4-1BB-His as analyte
recorded_metric: koff (s⁻¹)

1. B31-V2 humanized antibody (VHH, Humanized VHH expressed in 293F cells and captured on a Protein A chip; also called B31 VHH-V2) VHH: QVQLVESGGGLVQPGGSLRLSCSASGDIFSIMFWYRQAPGKQREYVSHITSNGRTNYADSVTGRFTISRDNSKNTLYLQMNSLRAEDTAVYYCAADDATNTRTYWGQGTLVTVSS: 0.0068
2. B125-V2 humanized antibody (VHH, Humanized VHH; also called B125 VHH-V2) VHH: EVQLVESGGGLVQPGGSLRLSCAASGFAFSDYAIGWFRQAPGKEREGVSCISSSDGSTYYADSVKGRFTISRDNSKNTLYLQMNSLRAEDTAVYYCATDTTTRCPIWSYYVESDYWGQGTLVTVSS: 0.0266
